The reported numbers originate from ChEMBL document CHEMBL1201862.

Listing: GI50 of selected compounds
Tested on: RXF 631
Experiment: NCI tumour cell line growth inhibition, 48 h
Activity calls are given as the source filed them. Rule as the data show it: active = GI50 up to about 1.1 µM and inactive = higher.
EXPERIMENTAL_READOUT: GI50

                                   compound  experimental_readout                result
0  C[N+](C)(C)CC(CC(=O)[O-])C1CC1 (centres undefined)                  GI50   > 100 µM (inactive)
1              Cc1ccc2oc(=O)cc(CC(=O)O)c2c1                  GI50   > 100 µM (inactive)
2  Cc1cc(Cl)cc2c1NC(=O)C2(O)CC(=O)c1ccc(Br)cc1 (centres undefined)                  GI50  > 71.3 µM (inactive)
3  COC1=C(C)C(=O)C2C(C1=O)C(c1ccc(OC)c(OC)c1)[C@H]2C (some centres undefined)                  GI50   > 100 µM (inactive)
